Values compiled from ChEMBL document CHEMBL1129751.

- Study system: Nitric oxide synthase, inducible (Homo sapiens)
- Sequence (P35228 whole entry): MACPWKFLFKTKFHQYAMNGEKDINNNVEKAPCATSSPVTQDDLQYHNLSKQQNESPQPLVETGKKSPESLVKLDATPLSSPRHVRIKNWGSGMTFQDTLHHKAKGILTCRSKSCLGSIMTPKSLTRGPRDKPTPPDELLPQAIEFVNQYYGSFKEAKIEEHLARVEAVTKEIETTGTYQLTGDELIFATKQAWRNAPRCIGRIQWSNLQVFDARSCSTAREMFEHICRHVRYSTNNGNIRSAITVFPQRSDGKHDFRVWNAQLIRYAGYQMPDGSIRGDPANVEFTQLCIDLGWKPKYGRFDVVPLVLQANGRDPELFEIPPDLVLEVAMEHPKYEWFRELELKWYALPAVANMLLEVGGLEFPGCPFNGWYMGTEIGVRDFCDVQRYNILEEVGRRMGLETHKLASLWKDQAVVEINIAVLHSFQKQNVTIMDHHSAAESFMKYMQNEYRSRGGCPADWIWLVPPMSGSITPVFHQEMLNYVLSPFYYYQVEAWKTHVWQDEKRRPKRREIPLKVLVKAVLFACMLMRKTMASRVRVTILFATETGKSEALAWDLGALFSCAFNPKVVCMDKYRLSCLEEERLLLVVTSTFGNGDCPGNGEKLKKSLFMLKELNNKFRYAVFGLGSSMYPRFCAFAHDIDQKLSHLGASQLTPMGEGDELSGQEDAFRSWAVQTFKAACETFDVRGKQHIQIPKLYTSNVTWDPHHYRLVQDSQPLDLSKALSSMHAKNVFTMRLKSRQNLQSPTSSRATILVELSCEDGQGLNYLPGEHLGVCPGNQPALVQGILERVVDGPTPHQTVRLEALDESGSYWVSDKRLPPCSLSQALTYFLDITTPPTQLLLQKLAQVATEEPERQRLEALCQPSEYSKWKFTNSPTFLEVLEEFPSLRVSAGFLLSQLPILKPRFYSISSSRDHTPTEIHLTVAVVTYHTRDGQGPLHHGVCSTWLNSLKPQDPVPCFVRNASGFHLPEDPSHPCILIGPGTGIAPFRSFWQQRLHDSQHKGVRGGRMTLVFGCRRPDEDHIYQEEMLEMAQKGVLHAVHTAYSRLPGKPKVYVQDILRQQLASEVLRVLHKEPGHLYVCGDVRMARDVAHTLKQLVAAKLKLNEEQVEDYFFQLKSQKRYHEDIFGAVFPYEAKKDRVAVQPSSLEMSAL
pIC50: −log10 of the molar value.
Label condition met when pIC50 >= 5; otherwise condition not met.

>>> group_label("NC1=NCCCN1")
"condition not met"
>>> group_label("NC1=NCCCCC1")
"condition met"

Okay, now this compound:
Q) I'd appreciate it if you could say whether `NC1=NCCCO1` has pIC50 at least equal to 5.
A) condition met
